Reference source: ChEMBL document CHEMBL1201862

measured target: Voltage-dependent T-type calcium channel subunit alpha-1H (Homo sapiens, UniProt O95180);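 also: channel activity triggered by adding a high calcium stimulation buffer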
Sequence (O95180 whole entry): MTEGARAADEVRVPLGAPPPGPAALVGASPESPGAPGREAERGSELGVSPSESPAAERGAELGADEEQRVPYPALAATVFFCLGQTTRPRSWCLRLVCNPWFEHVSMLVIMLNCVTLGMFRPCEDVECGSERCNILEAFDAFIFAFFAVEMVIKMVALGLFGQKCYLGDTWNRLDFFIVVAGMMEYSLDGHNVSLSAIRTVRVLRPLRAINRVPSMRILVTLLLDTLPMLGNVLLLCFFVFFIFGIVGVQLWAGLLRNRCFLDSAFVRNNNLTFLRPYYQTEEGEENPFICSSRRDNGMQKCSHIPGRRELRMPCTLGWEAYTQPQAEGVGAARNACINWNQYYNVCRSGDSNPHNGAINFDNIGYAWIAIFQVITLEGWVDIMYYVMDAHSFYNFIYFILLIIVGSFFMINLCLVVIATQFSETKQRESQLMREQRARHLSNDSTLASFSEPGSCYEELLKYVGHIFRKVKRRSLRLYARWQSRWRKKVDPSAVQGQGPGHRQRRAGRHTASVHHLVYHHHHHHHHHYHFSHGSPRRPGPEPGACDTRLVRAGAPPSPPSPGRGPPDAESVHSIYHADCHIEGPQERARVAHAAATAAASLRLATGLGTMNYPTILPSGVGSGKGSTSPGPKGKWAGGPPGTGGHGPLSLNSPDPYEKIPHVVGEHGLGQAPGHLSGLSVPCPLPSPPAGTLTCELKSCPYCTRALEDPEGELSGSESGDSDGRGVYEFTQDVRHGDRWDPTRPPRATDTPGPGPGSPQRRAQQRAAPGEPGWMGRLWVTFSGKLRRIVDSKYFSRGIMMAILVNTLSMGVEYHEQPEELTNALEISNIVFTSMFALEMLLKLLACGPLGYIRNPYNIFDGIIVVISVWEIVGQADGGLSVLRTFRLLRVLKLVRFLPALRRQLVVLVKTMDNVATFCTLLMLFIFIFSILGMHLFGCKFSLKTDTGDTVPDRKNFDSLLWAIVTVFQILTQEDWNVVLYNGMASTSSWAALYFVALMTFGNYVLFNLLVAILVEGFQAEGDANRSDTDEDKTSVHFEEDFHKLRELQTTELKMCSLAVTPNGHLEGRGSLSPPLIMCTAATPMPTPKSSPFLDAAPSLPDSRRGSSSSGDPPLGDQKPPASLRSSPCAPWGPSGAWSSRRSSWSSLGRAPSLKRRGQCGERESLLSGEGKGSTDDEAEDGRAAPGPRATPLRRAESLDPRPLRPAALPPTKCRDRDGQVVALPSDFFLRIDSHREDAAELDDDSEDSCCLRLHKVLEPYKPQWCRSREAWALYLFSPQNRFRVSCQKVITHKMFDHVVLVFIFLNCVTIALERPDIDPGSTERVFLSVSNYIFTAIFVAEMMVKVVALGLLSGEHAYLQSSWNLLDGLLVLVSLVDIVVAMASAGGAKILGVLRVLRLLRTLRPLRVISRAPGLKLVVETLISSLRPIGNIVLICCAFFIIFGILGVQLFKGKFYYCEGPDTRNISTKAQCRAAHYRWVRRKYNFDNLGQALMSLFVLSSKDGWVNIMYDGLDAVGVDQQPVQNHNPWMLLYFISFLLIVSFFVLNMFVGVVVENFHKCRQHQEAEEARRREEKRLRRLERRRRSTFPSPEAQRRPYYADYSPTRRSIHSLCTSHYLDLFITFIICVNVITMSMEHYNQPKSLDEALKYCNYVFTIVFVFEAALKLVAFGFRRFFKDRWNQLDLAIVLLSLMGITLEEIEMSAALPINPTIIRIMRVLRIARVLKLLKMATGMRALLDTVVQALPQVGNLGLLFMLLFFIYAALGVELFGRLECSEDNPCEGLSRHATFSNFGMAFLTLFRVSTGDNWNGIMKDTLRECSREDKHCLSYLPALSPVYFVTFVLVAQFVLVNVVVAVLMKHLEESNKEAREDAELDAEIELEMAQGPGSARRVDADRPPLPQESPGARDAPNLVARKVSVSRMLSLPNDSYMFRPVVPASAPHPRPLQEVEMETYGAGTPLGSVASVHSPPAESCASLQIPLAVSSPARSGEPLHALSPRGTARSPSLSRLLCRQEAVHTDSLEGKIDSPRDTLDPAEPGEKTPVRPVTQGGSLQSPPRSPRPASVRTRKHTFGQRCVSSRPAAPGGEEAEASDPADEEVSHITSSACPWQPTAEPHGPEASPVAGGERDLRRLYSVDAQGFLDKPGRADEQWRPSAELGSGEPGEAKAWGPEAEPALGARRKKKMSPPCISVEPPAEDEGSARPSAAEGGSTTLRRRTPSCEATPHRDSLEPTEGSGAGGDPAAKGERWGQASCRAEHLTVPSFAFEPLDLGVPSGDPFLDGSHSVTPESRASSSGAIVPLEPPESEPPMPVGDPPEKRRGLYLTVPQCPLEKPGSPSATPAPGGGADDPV
Type: functional
The source made the active and inactive calls.
What EC50 was measured for each of the following?

[Q] Which EC50 value is on record for Cc1cc(NC(=O)COC(=O)C(Nc2ccc(C(F)(F)F)cc2Cl)C(C)C)no1 (stereo not drawn) ?
[A] 3.96 µM (active)

[Q] And the next one, CCOC(=O)C1CCCN(C(=O)C2c3ccccc3Oc3ccccc32)C1 (stereo not drawn) ?
[A] 38.8 µM (active)

[Q] And the next one, "CN(Cc1ccccc1)S(=O)(=O)c1ccc(NS(=O)(=O)Cc2ccccc2)cc1" ?
[A] 3.46 µM (active)

[Q] And the next one, "Cc1ccc(OCC(=O)N2CCN(c3nnc(-c4ccc(C)cc4)c4ccccc34)CC2)cc1" ?
[A] 2.35 µM (active)

[Q] And the next one, "Cc1nc(-c2ccccc2)sc1-c1nc(-c2cccnc2)ncc1S(=O)(=O)c1ccccc1" ?
[A] 8.73 µM (active)

[Q] And the next one, "CCN(CC)S(=O)(=O)c1ccc(NC(=O)CCC2CCCCC2)cc1" ?
[A] 10.3 µM (active)

[Q] And the next one, "COc1cccc(CNC(=O)CSCc2cnn(-c3ccccc3)c2-n2cccc2)c1OC" ?
[A] 3.32 µM (active)

[Q] And the next one, "CC(=O)N1CCN(c2ccccc2NC(=O)COc2cc(C)ccc2C(C)C)CC1" ?
[A] 3.67 µM (active)

----------
What IC50 was measured for each of the following?
measured target: Induced myeloid leukemia cell differentiation protein Mcl-1 (Homo sapiens)
Sequence (Q07820 whole entry): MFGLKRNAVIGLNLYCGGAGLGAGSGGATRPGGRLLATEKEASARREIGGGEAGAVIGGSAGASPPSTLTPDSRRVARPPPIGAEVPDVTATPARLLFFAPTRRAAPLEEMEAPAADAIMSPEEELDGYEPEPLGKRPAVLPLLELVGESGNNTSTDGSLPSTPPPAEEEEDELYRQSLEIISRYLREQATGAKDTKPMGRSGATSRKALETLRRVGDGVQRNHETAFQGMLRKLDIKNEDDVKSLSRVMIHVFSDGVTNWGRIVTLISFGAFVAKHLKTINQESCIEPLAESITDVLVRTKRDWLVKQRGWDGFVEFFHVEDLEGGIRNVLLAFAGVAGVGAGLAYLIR
Type: functional
Activity calls are given as the source filed them.

[Q] Which IC50 value is on record for "CC(/C=C/c1ccco1)=N\NC(=O)c1cc(C)[nH]n1" ?
[A] 4.92 µM (active)

[Q] And the next one, "Cc1ccc(/C=C/C(=O)NCc2ccccn2)o1" ?
[A] 6.32 µM (active)

[Q] And the next one, "Nc1nc(N)c2cc(Sc3ccc4ccccc4c3)ccc2n1" ?
[A] 3.67 µM (active)

[Q] And the next one, "COc1cc(/C=C2\SC(=S)N(CC(=O)Nc3ccc(O)cc3)C2=O)cc(OC)c1OC" ?
[A] 3.74 µM (active)

[Q] And the next one, Cc1ccc2c(c1)C1C=CCC1C(C(=O)O)N2 (configuration not stated) ?
[A] > 54 µM (active)

[Q] And the next one, "COc1ccc(-c2ccc(/C=C3/C(=N)N4C=CSC4=NC3=O)o2)c([N+](=O)[O-])c1" ?
[A] 1.52 µM (active)

[Q] And the next one, "O=C(Nc1ccc(S(=O)(=O)Nc2nccs2)cc1)/C(=C/c1ccccc1Cl)NC(=O)c1ccccc1" ?
[A] 2.73 µM (active)

----------
What IC50 was measured for each of the following?
Test system: H9c2;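 also: cell death induced by hydrogen peroxide oxidative stress; compound pretreatment for 60 min then peroxide exposure for 2 h; potency is for protecting the cells against peroxide damage rather than for killing them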;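 also: confirmatory concentration-response retest of ultra-high-throughput screening hits for modulation of myocardial damage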
assay details: cells
Type: functional, cell-based
condition: Rattus norvegicus, H9c2, Myocardium
Activity calls are given as the source filed them.

[Q] Which IC50 value is on record for "COc1cc(C(=O)Nc2nc(-c3cccs3)cs2)cc(OC)c1OC" ?
[A] > 79 µM (inactive)

[Q] And the next one, "COc1cc2oc3cc(C#Cc4ccc(N)cc4)ccc3c(=O)c2cc1OC" ?
[A] > 79 µM (inactive)

[Q] And the next one, "Cc1ccc(-c2nnc(O)c3ccccc23)cc1N" ?
[A] 34.5 µM (inactive)

[Q] And the next one, "COc1ccc2occ(C(=O)c3coc4ccc(O)c(CN(C)C)c34)c2c1" ?
[A] > 79 µM (inactive)
